- experimental system: T1, human IL-23R (hIL-23R), custom construct with C-terminal avi and his tags, biotinylated (human, UniProt Q5VWK5 24-355, limits assumed, enzymatically biotinylated via the avi-tag)
- T1 construct: immobilized on streptavidin tips in BLI, labeled target in FACS; also called human IL-23 receptor
- T1 sequence (looked up): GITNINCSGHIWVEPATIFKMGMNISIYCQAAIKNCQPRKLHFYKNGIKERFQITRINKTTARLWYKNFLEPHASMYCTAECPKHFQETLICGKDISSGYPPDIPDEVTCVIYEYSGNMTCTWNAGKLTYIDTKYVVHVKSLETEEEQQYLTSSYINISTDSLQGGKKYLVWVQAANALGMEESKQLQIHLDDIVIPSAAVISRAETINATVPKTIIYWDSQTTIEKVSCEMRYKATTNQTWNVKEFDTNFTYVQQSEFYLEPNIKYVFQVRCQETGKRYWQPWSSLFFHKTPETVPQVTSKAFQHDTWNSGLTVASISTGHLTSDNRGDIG
- assay summary: biolayer interferometry titration, biotinylated hIL-23R immobilised on streptavidin tips, 1:1 fit
endpoint label: koff (s⁻¹)

binder	koff, s⁻¹
B08 (designed binder) NLWQIFYVLNTIYKRTGDPTAKKLNKALREALKKHDEKATKELAKKATKYIRS	4.6e-05
A03dslf04 (designed binder, E. coli, purified) MEEEKCVRELCKKYYEGKLSQPEAVEEIRKCARKKGLEAWKLIWAFMQCVKRDIHHHHHH	0.00034
23R_A (designed binder, purified from E. coli for BLI) MESEKYLRELVKKYYEGKLSVQEAVEEVRKYARKKGLEAWMLTWMFMELVKRYIHHHHHH	0.014
A03 (designed binder) MEEEKYVRELVKKYYEGKLSQPEAVEEIRKYARKKGLEAWKLIWAFMQLVKRDI	0.00024
A08dslf03 (designed binder, E. coli, purified) MEEEKYVRELCKKYYEKKLSQPEAVEEIRKYARKKGLEAWKLVWAFMECVKRNIHHHHHH	0.0002

P = A08 (designed binder) MEEEKYVRELVKKYYEKKLSQPEAVEEIRKYARKKGLEAWKLVWAFMELVKRNI
Q = B03 (designed binder) NLWQIFYILNTIHKRTGDPTAKKLPKALREAMKKGDEKAMKELAKKALKYIRS
R = A05dslf01 (designed binder, E. coli, purified) MEEEKCVREQCKKYYEKKLSQPEAVEIIRKCARKKGLEAWKLIWAFMQCVKRDIHHHHHH
S = 23R_B (designed binder, purified from E. coli for BLI) NLWQIFYQLSTILKRTGDPTAKKLLKALAEALKKGDEKALKELAKKATKYIRSHHHHHH
T = B06 (designed binder) NLWVIFYLLNTIHKRTGDPTAKKLIKALDEAMKKGDEKATKELAKKALKYIRS
Problem: Thanks in advance: please rank these 5 entries by koff, highest to lowest. Write the labels out in the order the request specifies.
Solution: S, R, P, T, Q
(S: 0.015 s⁻¹, R: 0.00044 s⁻¹, P: 0.00028 s⁻¹, T: 0.00011 s⁻¹, Q: 5.6e-05 s⁻¹)

Reference source: patent US20230357323A1
